# test-system: OT receptor (Homo sapiens)
# Sequence (P30559 whole entry): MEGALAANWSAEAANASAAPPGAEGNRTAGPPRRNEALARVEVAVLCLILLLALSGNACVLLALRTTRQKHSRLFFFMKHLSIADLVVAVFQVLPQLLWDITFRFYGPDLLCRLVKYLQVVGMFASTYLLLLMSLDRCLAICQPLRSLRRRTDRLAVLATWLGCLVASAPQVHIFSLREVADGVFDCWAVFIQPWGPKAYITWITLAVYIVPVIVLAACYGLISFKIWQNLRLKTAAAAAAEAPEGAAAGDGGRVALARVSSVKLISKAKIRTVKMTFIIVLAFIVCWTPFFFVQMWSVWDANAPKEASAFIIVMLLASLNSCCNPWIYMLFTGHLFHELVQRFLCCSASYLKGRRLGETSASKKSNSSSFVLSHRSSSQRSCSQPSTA
# assay-summary: OT receptor binding (primary binding at 10 μM and Ki)
# measurement-setup: at 10 μM; read-out: OT binding, mean % inhibition
result-type: inhibition at 10 µM (%)
# output: bare number, implied unit %

# input Query (compound): `CCN(C(=O)N1CCN(c2ncccn2)CC1)c1ccc(OC)cc1` ; field requested: inhibition at 10 µM
# output 27.7

# input Field request: inhibition at 10 µM | item: `COc1ccc(NC(=O)N2CCN(c3ccccc3C)CC2)cc1`
# output 12.8

# input # inhibition at 10 µM lookup, item `Cc1cc(-c2nnc(C)n2-c2ccccc2)ccc1CNC(=O)N1CCN(Cc2cc(O)cc(O)c2)CC1`
# output 14.8

# input Tell me the measured inhibition at 10 µM of `CCN(C(=O)N1CCN(C(=O)C23CC4CC(CC(C4)C2)C3)CC1)c1ccc(OC)cc1` , please.
# output 40.7

###

# test-system: human Arginine Vasopressin Receptor 1a (AVPR1a) (Homo sapiens, UniProt P37288)
# Sequence (P37288 whole entry): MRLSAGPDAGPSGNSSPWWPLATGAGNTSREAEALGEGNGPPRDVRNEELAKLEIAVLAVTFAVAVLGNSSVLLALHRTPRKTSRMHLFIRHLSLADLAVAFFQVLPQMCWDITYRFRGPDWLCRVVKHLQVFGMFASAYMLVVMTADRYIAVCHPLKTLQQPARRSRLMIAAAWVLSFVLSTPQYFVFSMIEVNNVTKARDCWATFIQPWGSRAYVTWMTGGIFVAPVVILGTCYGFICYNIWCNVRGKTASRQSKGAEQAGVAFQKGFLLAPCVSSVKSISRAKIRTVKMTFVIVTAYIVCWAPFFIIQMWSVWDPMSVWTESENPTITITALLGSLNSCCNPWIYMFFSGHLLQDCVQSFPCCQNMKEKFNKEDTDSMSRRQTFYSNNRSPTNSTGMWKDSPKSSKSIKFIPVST
# assay-summary: cell-based
# measurement-setup: read-out: V1a-R IC50
# label = true if IC50 < 200 nM else false

# input Field: below-cutoff. Rule: recorded IC50 strictly less than 200 nM. Subject: `N#Cc1ccc(N2CCC(C(=O)N(CC3CC3)c3ccc(Cl)cc3)CC2)nc1`
# output false

# input In the record for `O=C(C1CCN(c2ncc(Cl)cn2)CC1)N1CCCCc2cc(Cl)ccc21` , is IC50 less than 200 nM?
# output true

# input Quick check: does `CCc1cnc(N2CCC(C(=O)N(CC3CC3)c3ccc(Cl)cc3)CC2)nc1` have IC50 under 200 nM?
# output false

# input Does the reported IC50 of `O=C(C1CCN(c2ncc3ccccc3n2)CC1)N1CCCCc2cc(Cl)ccc21` stay below 200 nM?
# output true

# input Item `O=C(c1c(F)cccc1F)N1CCC(C(=O)N2CCCCc3cc(Cl)ccc32)CC1` : IC50 beneath 200 nM, strictly?
# output false

# input Please state whether IC50 is below 200 nM for `O=C(C1CCN(c2ccccn2)CC1)N1CCCCc2cc(Cl)ccc21`
# output true

# input Please state whether IC50 is below 200 nM for `N#Cc1cc(C(=O)N2CCC(C(=O)N3CCCCc4cc(Cl)ccc43)CC2)ccc1F`
# output false

# input In the record for `N#Cc1ccnc(N2CCC(C(=O)N3CCCCc4cc(Cl)ccc43)CC2)n1` , is IC50 less than 200 nM?
# output true

###

# test-system: human Arginine Vasopressin Receptor 1a (AVPR1a) (Homo sapiens)
# assay-summary: cell-based
# measurement-setup: read-out: V1a-R IC50
Give measured IC50 for each item. Keep answers brief.
Just the number in nM, nothing appended.

# input Suppose we examine the compound Cc1ccnc(N2CCC(C(=O)N(CC3CC3)c3ccc(Cl)cc3)CC2)c1 [Compound 148] ; what IC50 value has been reported?
# output 3

# input Bench note: what IC50 did O=C(c1csc2ccccc12)N1CCC(C(=O)N2CCCCc3cc(Cl)ccc32)CC1 [Compound 119] show?
# output 621

# input Look up IC50: O=C(c1ccc(Cl)cc1Cl)N1CCC(C(=O)N2CCCCc3cc(Cl)ccc32)CC1 [Compound 89]
# output 1800

# input For the compound N#Cc1ccnc(N2CCC(C(=O)N3CCCCc4cc(Cl)ccc43)CC2)c1 [Compound 177] , what IC50 is on record?
# output 28
